System tested: aggrecanase-1 (Homo sapiens, UniProt O75173)
Sequence (O75173 213-837): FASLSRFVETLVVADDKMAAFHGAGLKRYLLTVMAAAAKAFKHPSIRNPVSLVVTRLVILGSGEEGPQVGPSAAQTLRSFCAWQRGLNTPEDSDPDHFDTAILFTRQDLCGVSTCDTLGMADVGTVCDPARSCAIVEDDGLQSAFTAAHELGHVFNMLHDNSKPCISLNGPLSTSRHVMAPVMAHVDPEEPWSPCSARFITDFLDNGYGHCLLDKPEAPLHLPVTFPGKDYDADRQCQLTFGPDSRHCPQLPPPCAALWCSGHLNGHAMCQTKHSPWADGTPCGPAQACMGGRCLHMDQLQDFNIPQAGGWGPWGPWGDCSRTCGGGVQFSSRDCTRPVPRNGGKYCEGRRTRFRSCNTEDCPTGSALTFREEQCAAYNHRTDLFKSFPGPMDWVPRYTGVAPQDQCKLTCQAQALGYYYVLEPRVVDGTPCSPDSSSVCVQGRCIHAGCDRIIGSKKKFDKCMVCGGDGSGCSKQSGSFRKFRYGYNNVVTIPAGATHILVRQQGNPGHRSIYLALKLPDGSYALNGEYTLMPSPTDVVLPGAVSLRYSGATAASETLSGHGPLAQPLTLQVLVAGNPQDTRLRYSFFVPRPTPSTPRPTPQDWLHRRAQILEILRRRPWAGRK
Measurement protocol: Aggrecanase-1 inhibitory action (Particle Assay, GAG release from aggrecan-containing polyacrylamide particles)
Type: biochemical
Protocol conditions: Experimental Example 1; read-out: IC50 AG1
pIC50: −log10 of the molar value.
Catalogue of pIC50 values
Measurement name: pIC50

>>> recorded_measurement("C[C@]1(c2ccccc2)C[C@@]1(NS(=O)(=O)c1ccc(-n2cc(S(C)(=O)=O)cn2)s1)C(=O)O [Example 2-602]")
"> 7.00"
>>> recorded_measurement("O=C(CSCC1(c2ccccc2)CC1(NS(=O)(=O)c1ccc(-c2ccc(Cl)cc2)s1)C(=O)O)N1CCOCC1 (stereo not shown) [Example 2-359]")
"> 6.00"
>>> recorded_measurement("CN1CCC2C(c3ccccc31)C2(NS(=O)(=O)c1ccc(-c2ccc(Cl)cc2)s1)C(=O)O (stereo not shown) [Example 2-430]")
"> 7.00"
>>> recorded_measurement("CC(=O)Nc1ccc(-c2ccc(S(=O)(=O)N[C@@]3(C(=O)O)C[C@]3(C)c3ccccc3)s2)cc1 [Example 2-402]")
"≤ 6.00"
>>> recorded_measurement("O=C(O)C1(NS(=O)(=O)c2cn3cc(-c4ccccc4)nc3s2)CC1c1ccccc1 (stereo not shown) [Example 2-489]")
"≤ 6.00"
>>> recorded_measurement("O=C(NCC1(c2ccccc2)CC1(NS(=O)(=O)c1ccc(-c2ccc(Cl)cc2)s1)C(=O)O)C1CC1 (stereo not shown) [Example 2-379]")
"> 6.00"
>>> recorded_measurement("CC1CCC(N2CCN(S(=O)(=O)N[C@@]3(C(=O)O)C(C)[C@@H]3c3ccccc3)CC2)CC1 (stereo partly shown) [Example 2-442]")
"≤ 6.00"
>>> recorded_measurement("CCC1[C@H](c2ccccc2)[C@]1(NS(=O)(=O)c1ccc(-c2cc(C(F)(F)F)on2)s1)C(=O)O (stereo partly shown) [Example 2-328]")
"> 7.00"
>>> recorded_measurement("CC1[C@H](c2ccccc2)[C@]1(NS(=O)(=O)N1CCN(C(=O)OCc2ccccc2)CC1)C(=O)O (stereo partly shown) [Example 2-532]")
"≤ 6.00"
>>> recorded_measurement("CC1[C@H](c2ccccc2)[C@]1(NS(=O)(=O)N1CCN(c2ccc(Cl)cc2)C(=O)C1)C(=O)O (stereo partly shown) [Example 2-502]")
"≤ 6.00"
>>> recorded_measurement("O=C(NCC1(c2ccccc2)CC1(NS(=O)(=O)c1ccc(-c2ccc(Cl)cc2)s1)C(=O)O)c1ccccn1 (stereo not shown) [Example 2-368]")
"> 6.00"
>>> recorded_measurement("CC1[C@H](c2ccccc2)[C@]1(NS(=O)(=O)c1ccc(-c2ccc(Cl)cc2F)s1)C(=O)O (stereo partly shown) [Example 2-407]")
"> 7.00"
>>> recorded_measurement("CC1[C@H](c2ccccc2)[C@]1(NS(=O)(=O)N1CCN(c2ccc(Cl)cn2)CC1)C(=O)O (stereo partly shown) [Example 2-457]")
"> 7.00"
>>> recorded_measurement("O=C(CCO)NCC1(c2ccccc2)CC1(NS(=O)(=O)c1ccc(-c2ccc(Cl)cc2)s1)C(=O)O (stereo not shown) [Example 2-395]")
"> 6.00"
>>> recorded_measurement("CN1CCN(C(=O)CCc2ccc([C@H]3C[C@@]3(NS(=O)(=O)c3ccc(-c4cc(C(F)(F)F)on4)s3)C(=O)O)cc2)CC1 [Example 2-280]")
"> 6.00"
>>> recorded_measurement("CC1[C@H](c2ccccc2)[C@]1(NS(=O)(=O)c1ccc(OCc2ccc(Cl)cc2Cl)cc1)C(=O)O (stereo partly shown) [Example 2-324]")
"≤ 6.00"
>>> recorded_measurement("CC1[C@H](c2ccccc2)[C@]1(NS(=O)(=O)c1ccc(-c2cn3cccnc3n2)s1)C(=O)O (stereo partly shown) [Example 2-571]")
"≤ 6.00"
>>> recorded_measurement("COc1ccc(CN2CCN(S(=O)(=O)N[C@@]3(C(=O)O)C(C)[C@@H]3c3ccccc3)CC2)cc1 (stereo partly shown) [Example 2-536]")
"≤ 6.00"
>>> recorded_measurement("CC(=O)c1ccc(-c2ccc(S(=O)(=O)N[C@@]3(C(=O)O)C[C@]3(C)c3ccccc3)s2)cc1 [Example 2-573]")
"> 6.00"
>>> recorded_measurement("CC1[C@H](c2ccccc2)[C@]1(NS(=O)(=O)c1ccc(-c2cc(C(F)(F)F)no2)s1)C(=O)O (stereo partly shown) [Example 2-338]")
"> 7.00"
>>> recorded_measurement("Cc1cnc(-c2ccc(S(=O)(=O)N[C@@]3(C(=O)O)C(C)[C@@H]3c3ccccc3)s2)o1 (stereo partly shown) [Example 2-417]")
"> 6.00"
>>> recorded_measurement("C[C@]1(c2ccccc2)C[C@@]1(NS(=O)(=O)c1ccc(-c2cc(Cl)cc(Cl)c2)s1)C(=O)O [Example 2-448]")
"≤ 6.00"
>>> recorded_measurement("CC1[C@H](c2ccccc2)[C@]1(NS(=O)(=O)c1ccc(-c2ccc3[nH]c(=O)sc3c2)s1)C(=O)O (stereo partly shown) [Example 2-468]")
"> 6.00"
>>> recorded_measurement("CC1[C@H](c2ccccc2)[C@]1(NS(=O)(=O)c1ccc(-c2nc3ccccc3s2)s1)C(=O)O (stereo partly shown) [Example 2-591]")
"≤ 6.00"
>>> recorded_measurement("C[C@]1(c2ccccc2)C[C@@]1(NS(=O)(=O)c1ccc(N2CCC(F)(F)C2)s1)C(=O)O [Example 2-467]")
"≤ 6.00"
>>> recorded_measurement("O=C(O)[C@]1(NS(=O)(=O)c2ccc(-n3cc(Br)cn3)s2)C[C@@H]1c1ccccc1 [Example 2-605]")
"≤ 6.00"
>>> recorded_measurement("CC1[C@H](c2ccccc2)[C@]1(NS(=O)(=O)c1ccc(-c2ccc(Cl)c(N)c2)s1)C(=O)O (stereo partly shown) [Example 2-496]")
"> 7.00"
>>> recorded_measurement("Cc1cnn(-c2ccc(S(=O)(=O)N[C@@]3(C(=O)O)C(C)[C@@H]3c3ccccc3)s2)c1 (stereo partly shown) [Example 2-287]")
"> 7.00"
